Values compiled from PubChem BioAssay.

Method: TRAIL sensitizers in caspase-8 expressing neuroblastoma cells, dose response, NB7 cells plus caspase-8, luminescence, panel (AID 652002)
Experimental Conditions: NB7 neuroblastoma +caspase-8, no TRAIL, compound-alone cytotoxicity counter-screen, luminescence viability, NB7+Caspase-8, run 1; at 12.5 µM (top of the series) unless noted
Reported Endpoint: activity, % sensitization

COc1cccc(N/C=C/C(=O)c2ccc(Cl)cc2)c1 | 28.1%
CCOc1ccc(NC(=O)c2ccco2)cc1 | 45.1%
CCOC(=O)c1ccc(N/C=C/C(=O)c2ccco2)cc1 | 0.326%
COc1cccc(C(=O)Nc2ccc(C3CC3(Cl)Cl)cc2)c1 (centres undefined) | 5.52%
Cc1ccc(NC(=O)c2ccccc2O)cc1 | 29%
O/C(=C\c1ccc2ccccc2n1)c1ccc(O)cc1O | 1.18%
O=C(Nc1ccc(Br)cc1F)c1ccc2c(c1)OCCO2 | 7.23%
COc1ccc2sc(-c3ccc(S(C)(=O)=O)cc3)c(C#Cc3cncn3C)c2c1 | -20.9%
CCCCCCc1cc2cc(S(=O)(=O)c3ccc(F)c(Cl)c3)c(=O)oc2cc1O | -6.43%
CC1(C)N=C(N)N=C(N)N1c1ccc(CCCCc2ccccc2)cc1 | 1.29%
COc1ccc(/C(C)=N/Nc2nncc3ccccc23)cc1 | 27.1%
C/C(=N\NC(=O)c1csc(C)c1C)c1ccco1 | 22.5%
CCN(CC)S(=O)(=O)c1ccc(C(=O)OCC(=O)Nc2ccc(-c3nc4ccc(C)cc4s3)cc2)cc1 | 13.4%
O=C(NCC1CCCO1)c1ccc2c3n(nc2c1)-c1ccccc1CO3 (centres undefined) | 21%
Cc1cc(NC(=O)c2cncc(Br)c2)ccc1NC(=O)c1cc2ccccc2o1 | 12.3%
C#CC(=O)CC1(CN(Cc2ccccc2)C(=O)OC(C)(C)C)CCCCC1 | 89.9%
CCOC(=O)c1cnc2c(-c3ccccc3)cnn2c1N | 13.3%
Nc1ccccc1C(=O)NN=Cc1cccc([N+](=O)[O-])c1 | -5.65%
COC(=O)c1ccc(/C=C(\C#N)c2ccccn2)cc1 | -8.36%
